- Test system: CAKI-1 renal
- runDescription: NCI tumour cell line growth inhibition, 48 h; in the data active = GI50 below about 0.43 µM; inactive = the rest
Respond with a class label; see active, inactive

Worked cases, answers included:
- molecule: "CCCCOc1ccc(/C=N/Nc2cc(C)nc3ccc(Br)cc23)cc1"
  qualitativeLabel: "inactive"
- molecule: "CCC(=O)N1C/C(=C/c2ccc(Br)cc2)C(=O)/C(=C/c2ccc(Br)cc2)C1"
  qualitativeLabel: "inactive"
- molecule: "Cc1nc2sc3c(N)ncnc3c2c(C)c1C"
  qualitativeLabel: "inactive"
- molecule: "CCCCCCCCCCNCCSS(=O)(=O)O"
  qualitativeLabel: "inactive"
- molecule: "CCC(C)C1=C(O)[N+]2([O-])Oc3ccc(C4=C(O)C(=O)C(c5ccc(O)cc5)=C(O)C4=O)cc3OC2(C(C)CC)C(=O)N1O (stereo unspecified)"
  qualitativeLabel: "inactive"
- molecule: "CC1=C(C(=O)Nc2ccc(F)c(Cl)c2)C(c2cccc(Oc3ccccc3)c2)NC(=S)N1 (stereo unspecified)"
  qualitativeLabel: "inactive"

Please look at the following molecule next.
Prompt line: GET /call?item= COc1ccc2c(c1)/C(=C\c1c(-c3cc(OC)ccc3OC)nc3sccn13)C(=O)N2 returns the recorded outcome of this test.
Response line: inactive

###

- Tested on: SK-MEL-2 melanoma
- runDescription: NCI tumour cell line growth inhibition, 48 h
TGI of 50 µM or higher: yes (1). Under 50 µM: no (0).

Worked set:
- molecule: "Cc1ccc(S(=O)(=O)N/N=C2\\CCCCCCCCCCC2CN(C)C)cc1 (stereo unspecified)"
  qualitativeLabel: "no (0)"
- molecule: "CN(C)C(=S)C(Cl)(c1ccccc1)c1ccccc1"
  qualitativeLabel: "yes (1)"
- molecule: "CC(=O)NNc1nc(C)c(C(=O)NNC(=O)C(=O)Nc2c([N+](=O)[O-])ccc(C)c2C)s1"
  qualitativeLabel: "yes (1)"

Prompt line: Could you tell me if the measured TGI of CCOC(=O)/C(C(=S)NCc1ccccc1)=C(/N)N1CCCC1 reaches 50 µM or more?
Response line: yes (1)

Prompt line: Repeat for the following molecule: Cn1c2ccccc2c2ccc3c(c21)C(=O)C(c1ccccc1)=CC3=O
Response line: no (0)

Prompt line: Same question for O=C(Nc1ccc(Cl)cc1C(=O)O)c1ccc([N+](=O)[O-])cc1 please.
Response line: no (0)

Prompt line: Now consider O=[N+]([O-])c1cc(-[n+]2cc([O-])on2)ccc1Cl and answer again.
Response line: no (0)

Prompt line: Now consider Nc1nc2c(-c3ccc([N+](=O)[O-])cc3)nnn2c2ccccc12 and answer again.
Response line: yes (1)

###

Let's look at some compounds and their measured TGI.
- System: HT29 colon
- runDescription: NCI tumour cell line growth inhibition, 48 h
Reply with just the number (in µM).

Below, each entry is followed by its recorded TGI result.
- compound: "O=C(Nc1cc(Cl)ccc1O)c1cccc(Nc2ccnc(C(F)(F)F)c2)c1"
  TGI (µM): 31.8
- compound: "COc1ccc(S(=O)(=O)Nc2c(/C=C\\c3cc(OC)c(OC)c(OC)c3)ccc(OC)c2O)cc1"
  TGI (µM): 10.8
- compound: "COc1ccccc1[As]=[As]c1ccccc1OC (stereo not drawn)"
  TGI (µM): 0.174
- compound: "CS(=O)(=O)c1ccc2nc(-c3ccc(O)cc3)sc2c1"
  TGI (µM): 26
- compound: "COc1ccc2c(c1)/C(=C\\c1c(-c3cc(OC)ccc3OC)nc3sccn13)C(=O)N2"
  TGI (µM): 2.66
- compound: "O=C(CSCC(=O)N/N=C\\c1ccc(O)c(O)c1O)N/N=C\\c1ccc(O)c(O)c1O"
  TGI (µM): 54.9
- compound: "CN(C)C(=S)C(Cl)(c1ccccc1)c1ccccc1"
  TGI (µM): 77.3
- compound: "O=C1C=C(OCC=C(C(F)(F)F)C(F)(F)F)c2ccccc2C1=O"
  TGI (µM): 5.47
- compound: "O=C(/C=C/c1ccccn1)c1ccc(OCc2nnc(-c3ccc(Cl)cc3)o2)cc1"
  TGI (µM): 3.99
- compound: "O=C(Nc1ccc(Cl)cc1)c1cc([N+](=O)[O-])ccc1O"
  TGI (µM): 29.1

Prompt line: Find the recorded TGI belonging to COc1ccc(-c2oc3cc(OC(C)=O)cc(OC(C)=O)c3c(=O)c2OC)cc1 and report it.
Response line: 36.3

Prompt line: Please answer likewise for CCCCOc1ccc(/C=N/Nc2cc(C)nc3ccc(Br)cc23)cc1
Response line: 2.97

Prompt line: Try CC(=O)Oc1c2ccsc2c(OC(C)=O)c2ccsc12 next.
Response line: 4.45

Prompt line: Next compound: c1ccc2c(c1)c1c3c(c4c(n32)=NCCN4)CCC1
Response line: 56.7

###

- Test system: SK-OV-3 ovarian
- runDescription: NCI tumour cell line growth inhibition, 48 h
Measured TGI, listed per entry.

A selection of reference data follows.
- compound: "O=C1CCC2c3ccccc3NCN12 (stereo not given)"
  TGI: "> 100 µM"
- compound: "O=C(CSCC(=O)N/N=C\\c1ccc(O)c(O)c1O)N/N=C\\c1ccc(O)c(O)c1O"
  TGI: "> 100 µM"
- compound: "COC(=O)c1ccc(C)cc1CC1Cc2cccc(C)c2C1=O (stereo not given)"
  TGI: "92 µM"
- compound: "COC(=O)CC(C(C(=O)OC)C(=O)OC)N1C(=O)OC(c2ccccc2)C1c1ccccc1 (stereo not given)"
  TGI: "> 100 µM"
- compound: "CN(C)CCOc1cc2c(c3ccccc13)-c1ccccc1C2O (stereo not given)"
  TGI: "30.1 µM"
- compound: "CCOC(=O)c1c(N2CCCC2)[nH]c(=O)c(C(c2ccc(Cl)c([N+](=O)[O-])c2)c2c(O)c(C(=O)OCC)c(N3CCCC3)[nH]c2=O)c1O"
  TGI: "> 100 µM"
- compound: "CC1=C(C(=O)Nc2ccc(F)c(Cl)c2)C(c2cccc(Oc3ccccc3)c2)NC(=S)N1 (stereo not given)"
  TGI: "43.3 µM"
- compound: "O=C1OCC(c2ccc(Cl)cc2)=C1Cl"
  TGI: "> 100 µM"

Prompt line: // TGI lookup, key: Cc1cn(Cc2cccc(C3=NCCCN3)c2)c(=O)n(Cc2cccc(C3=NCCCN3)c2)c1=O
Response line: > 100 µM

Prompt line: Try this compound too: O=C(CCC(=O)Nc1cccc(C(F)(F)F)c1)CC(=O)c1ccc2ccccc2c1
Response line: > 100 µM

###

- Test system: UACC-62 melanoma
- runDescription: NCI tumour cell line growth inhibition, 48 h
reportedProperty: TGI

Some molecules with recorded TGI:
- molecule: "COc1cc([N+](=O)[O-])c(S(=O)(=O)O)cc1-n1nc(C(=O)Nc2ccccc2)n[n+]1-c1cc(S(=O)(=O)[O-])c([N+](=O)[O-])cc1OC"
  TGI: "> 100 µM"
- molecule: "C[C@]12CC[C@H](O)CC1=CC[C@@H]1C2CC[C@]2(C)C(=O)NC(=O)CC12 (some centres not stated)"
  TGI: "> 100 µM"
- molecule: "COc1cc2c(c(OC)c1OC)-c1ccc(SC)c(=O)cc1[C@@H](NC(=O)C(F)(F)F)CC2"
  TGI: "> 100 µM"
- molecule: "CCn1c(=O)c(C(=O)O)c(Cl)c2cc3c(cc21)OCO3"
  TGI: "> 100 µM"
- molecule: "C[n+]1c2ccccc2c(CNCC(=O)O)c2ccccc21"
  TGI: "3.83 µM"
- molecule: "COC(=O)c1c(C)c2c(c(C)c1C(=O)OC)-c1c(C)ccc3ccc(C)c-2c13"
  TGI: "> 100 µM"
- molecule: "CC(=O)C1C(=O)C(=O)N(c2ccc([N+](=O)[O-])cc2)C1=O (configuration not stated)"
  TGI: "> 100 µM"
- molecule: "O=c1oc2ccccc2c(O)c1C(c1ccc(-c2ccccc2)cc1)c1c(O)c2ccccc2oc1=O"
  TGI: "39.5 µM"

Prompt line: API: value(readout= TGI, system= UACC-62 melanoma, query= CCCc1nc(Cl)c(Cl)c(Cl)n1 )
Response line: > 100 µM

Prompt line: Same read-out for CN(C)C(=S)C(Cl)(c1ccccc1)c1ccccc1 ?
Response line: > 100 µM

Prompt line: Subsequent entry: O=C(NCCOCCOCCOCCNC(=O)c1cc2c(o1)C(=O)c1ccccc1C2=O)NC12CC3CC(CC(C3)C1)C2
Response line: 1.92 µM

Prompt line: Try COc1ccc2c(O)c(/C=C3\N=Nc4ncccc43)oc2c1C[C@@H]1CCNC[C@H]1F next.
Response line: 3.79 µM

Prompt line: Try the molecule CC1(C)c2ccccc2N2O[C@@H]3C(=O)N(c4ccccc4)C(=O)[C@@H]3C21c1ccccc1 (some centres not stated)
Response line: > 100 µM

Prompt line: Same question for CCOC(=O)c1[nH]c2cc(OC)c(OC)cc2c1CN(C)C please.
Response line: > 100 µM

Prompt line: Thanks! And S=C(N/N=C/c1ccccn1)N1CC2CCC(CC2)C1 ?
Response line: 0.531 µM

Prompt line: Another molecule: COc1ccc(C(=O)c2cc3c(N)c(C(=O)Nc4cccc(Br)c4C)sc3nc2C)cc1
Response line: > 100 µM

Prompt line: Repeat with CCCCNC(=S)OCCC(C)CCCC(C)C (configuration not stated)
Response line: > 100 µM

Origin of values: PubChem BioAssay (NCI)
